Tested on: MDA-MB-231S triple-negative breast cancer cell line
procedureText: MTT antiproliferative assay, MDA-MB-231S
Type: cell-based
measurementParameters: 48 h, read-out: IC50, antiproliferative effect
assayMetric: IC50 (nM)
Lab book: enter the figure in nM, no units written.

# input Item under review: COc1cccc2c1C(=O)c1c(O)c3c(c(O)c1C2=O)C[C@@](O)(C(=O)CO)C[C@@H]3O[C@H]1C[C@H](N)[C@H](O)[C@H](C)O1 [doxorubicin] . Reported IC50?
# output 70
